Known IC50 of a selection of molecules
Target: mature MHV M^pro (Murine hepatitis virus strain A59)
Sequence (P0C6X9 3334-3635): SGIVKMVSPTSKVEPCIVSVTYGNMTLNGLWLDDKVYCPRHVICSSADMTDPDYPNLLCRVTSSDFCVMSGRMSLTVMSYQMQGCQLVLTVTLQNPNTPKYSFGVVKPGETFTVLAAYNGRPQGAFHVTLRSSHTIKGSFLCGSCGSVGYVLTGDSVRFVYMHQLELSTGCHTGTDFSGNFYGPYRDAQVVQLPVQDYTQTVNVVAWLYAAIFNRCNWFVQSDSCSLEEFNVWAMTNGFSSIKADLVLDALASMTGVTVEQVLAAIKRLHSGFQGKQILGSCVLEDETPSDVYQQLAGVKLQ
Test: fluorogenic peptide cleavage
The reply should be a number in nM, with the unit left off.

Worked cases, IC50 given:
INSERT INTO assay_data (molecule, quantitative_result) VALUES
  ('CC(C)(C)NC(=O)N[C@H](C(=O)N1C[C@H]2[C@@H]([C@H]1C(=O)NC(CC1CCC1)C(=O)C(N)=O)C2(C)C)C(C)(C)C (stereo partly drawn) [boceprevir]', 15000),
  ('CC(C)(C)NC(=O)N[C@H](C(=O)N1C[C@H]2[C@@H]([C@H]1C(=O)N[C@@H](C[C@@H]1CCNC1=O)C(=O)C(N)=O)C2(C)C)C(C)(C)C [ML1000]', 130);

Next molecule, IC50 to be filled in.
Give the reported IC50 for this molecule. CC(C)(C)NC(=O)N[C@H](C(=O)N1C[C@@H]2CCC[C@@H]2[C@H]1C(=O)N[C@@H](C[C@@H]1CCNC1=O)C(=O)C(N)=O)C(C)(C)C [ML1100] 301
